target: human c-MER catalytic domain (Homo sapiens (Human), UniProt Q12866); experiment: LanthaScreen TR-FRET kinase assay, c-MER; conditions: read-out: Mer TK inhibition (IC50); Biochemical IC50, TR-FRET, 10 uM ATP
Sequence (Q12866 587-858): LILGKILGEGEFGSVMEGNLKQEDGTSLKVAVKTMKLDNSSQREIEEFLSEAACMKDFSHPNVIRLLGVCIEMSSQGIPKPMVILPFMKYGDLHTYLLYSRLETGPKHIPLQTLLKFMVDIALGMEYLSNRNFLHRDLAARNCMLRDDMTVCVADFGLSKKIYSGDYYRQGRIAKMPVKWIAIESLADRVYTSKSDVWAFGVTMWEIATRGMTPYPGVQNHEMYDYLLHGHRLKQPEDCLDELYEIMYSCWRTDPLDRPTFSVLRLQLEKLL
pIC50: −log10 of the molar value.
pIC50 values for the molecules below.

Solved cases below.
MOLECULE	pIC50
Cc1c(N)cccc1-c1ccc(CO[C@H]2CCC[C@@H]2NC(=O)c2cc(-c3cnn(C)c3)cnc2N)cc1	< 6.00
CN1CCN(Cc2ccc(-c3ccc(CO[C@H]4CCC[C@@H]4NC(=O)c4cc(-c5cnn(C)c5)cnc4N)cc3)cn2)CC1	> 8.00
CCc1cc(CO[C@H]2CNC[C@@H]2NC(=O)c2cc(-c3cccnc3)cnc2N)ccc1C	> 8.00
CN1CCN(Cc2ccc(-c3ccc(CO[C@H]4CCC[C@@H]4NC(=O)c4cc(-c5ccncc5)cnc4N)cc3)cc2)CC1	> 8.00
CCNc1ncc(-c2cnn(C)c2)cc1C(=O)N[C@H]1CCC[C@@H]1OCc1ccccc1	< 6.00

Lab note: measured pIC50 of CC(c1ccc(-c2ccc(CO[C@H]3CCC[C@@H]3NC(=O)c3cc(-c4cnn(C)c4)cnc3N)cc2)cc1)N1C[C@@H](C)N(CCO)[C@@H](C)C1 (stereo partly shown) was > 8.00

In plain terms, CC(C)C[C@H](COCc1ccccc1)NC(=O)c1cc(-c2cnn(C)c2)cnc1N has a documented pIC50 of < 6.00
